Where do these numbers come from? They come from ChEMBL document CHEMBL5291721.

Entries below carry reported AC50 on Muscarinic acetylcholine receptor M3 (Homo sapiens).
Sequence (P20309 whole entry): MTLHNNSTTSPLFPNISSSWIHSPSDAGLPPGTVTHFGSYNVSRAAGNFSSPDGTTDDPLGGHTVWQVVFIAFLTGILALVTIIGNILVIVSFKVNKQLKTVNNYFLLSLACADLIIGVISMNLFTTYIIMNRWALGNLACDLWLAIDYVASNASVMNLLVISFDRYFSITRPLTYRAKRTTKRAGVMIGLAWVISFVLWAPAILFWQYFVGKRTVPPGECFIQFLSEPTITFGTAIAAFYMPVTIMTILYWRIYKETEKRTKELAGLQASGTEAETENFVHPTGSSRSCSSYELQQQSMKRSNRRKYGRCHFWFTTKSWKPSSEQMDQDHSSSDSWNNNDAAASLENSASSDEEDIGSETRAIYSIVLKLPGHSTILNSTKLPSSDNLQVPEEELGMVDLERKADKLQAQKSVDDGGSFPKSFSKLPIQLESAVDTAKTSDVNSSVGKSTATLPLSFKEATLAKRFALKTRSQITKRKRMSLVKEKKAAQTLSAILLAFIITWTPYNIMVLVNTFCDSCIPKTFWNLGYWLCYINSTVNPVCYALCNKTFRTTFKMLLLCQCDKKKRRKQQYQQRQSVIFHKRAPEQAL

Provide the reported AC50 of each entry below, same order.
1. CCCCCCCCOc1ccccc1C(=O)Nc1ccc(C(=O)OCC[N+](C)(CC)CC)cc1 [OTILONIUM BROMIDE]
2. CC(=O)N[C@H]1[C@H]([C@H](O)[C@H](O)CO)OC(C(=O)O)=C[C@@H]1N=C(N)N [ZANAMIVIR]
3. C=C1CC[C@@]2(O)[C@H]3Cc4ccc(O)c5c4[C@@]2(CCN3CC2CC2)[C@H]1O5

Solution:
1: 1.7 µM; 2: > 30 µM; 3: > 30 µM

Provide the reported AC50 of each entry below, same order.
1. Cc1nc2ccc(CN(C)c3ccc(C(=O)N[C@@H](CCC(=O)O)C(=O)O)s3)cc2c(=O)[nH]1 [RALTITREXED]
2. O=C1NCCN1CCN1CCC(c2cn(-c3ccc(F)cc3)c3ccc(Cl)cc23)CC1 [SERTINDOLE]
3. CN[C@@H](C)[C@H](O)c1ccccc1 [EPHEDRINE]

Solution:
> 30 µM
22 µM
> 10 µM
